All values here come from ChEMBL document CHEMBL4011590.

Quick reference: MIC of the listed items.
- Test system: Pichia kudriavzevii
- assay.protocol: Antifungal activity against Candida krusei E28 after 24 hrs by broth microdilution method
- Format: functional
- run.conditions: E28, 24 h
assay.readout: MIC

O=[N+]([O-])c1cc(-c2nnnn2Cc2ccccc2)cc([N+](=O)[O-])c1 = 250 µM
Cn1nnnc1SCn1nnc(-c2cc([N+](=O)[O-])cc([N+](=O)[O-])c2)n1 = > 500 µM
O=[N+]([O-])c1cc(-c2nnn(CSc3nnnn3-c3ccccc3)n2)cc([N+](=O)[O-])c1 = > 125 µM
Cc1ccc(Cn2nnc(-c3cc([N+](=O)[O-])cc([N+](=O)[O-])c3)n2)cc1 = > 500 µM
COc1cccc(-n2nnnc2SCn2nnc(-c3cc([N+](=O)[O-])cc([N+](=O)[O-])c3)n2)c1 = > 500 µM
O=[N+]([O-])c1cc(-c2nnn(CSc3nnnn3Cc3ccccc3)n2)cc([N+](=O)[O-])c1 = > 125 µM
O=[N+]([O-])c1cc(-c2nnn(Cc3cccc(Cl)c3)n2)cc([N+](=O)[O-])c1 = > 500 µM
O=[N+]([O-])c1cc(-c2nnn(Cc3cccc(Br)c3)n2)cc([N+](=O)[O-])c1 = > 500 µM
COc1cccc(Cn2nnc(-c3cc([N+](=O)[O-])cc([N+](=O)[O-])c3)n2)c1 = > 500 µM
C[C@@H]1[C@H](O)[C@@H](C)/C=C/C=C/C=C/C=C/C=C/C=C/C=C/[C@H](O[C@@H]2O[C@H](C)[C@@H](O)[C@H](N)[C@@H]2O)C[C@@H]2O[C@](O)(C[C@@H](O)C[C@@H](O)[C@H](O)CC[C@@H](O)C[C@@H](O)CC(=O)O[C@H]1C)C[C@H](O)[C@H]2C(=O)O = 1 µM
O=[N+]([O-])c1cc(-c2nnn(CSc3nnnn3-c3ccc(Cl)cc3)n2)cc([N+](=O)[O-])c1 = > 125 µM
O=[N+]([O-])c1cc(-c2nnn(Cc3ccccc3F)n2)cc([N+](=O)[O-])c1 = > 500 µM
OC(Cn1cncn1)(Cn1cncn1)c1ccc(F)cc1F = 105 µM
O=[N+]([O-])c1cc(-c2nnn(Cc3ccc(Cl)cc3)n2)cc([N+](=O)[O-])c1 = > 500 µM
COc1ccc(Cn2nnnc2-c2cc([N+](=O)[O-])cc([N+](=O)[O-])c2)cc1 = 250 µM
O=[N+]([O-])c1cc(-c2nnn(CSc3nnnn3-c3ccc(Cl)c(Cl)c3)n2)cc([N+](=O)[O-])c1 = > 125 µM
Cc1ccc(Cn2nnnc2-c2cc([N+](=O)[O-])cc([N+](=O)[O-])c2)cc1 = > 500 µM
O=[N+]([O-])c1cc(-c2nnn(Cc3ccc(F)cc3)n2)cc([N+](=O)[O-])c1 = > 500 µM
O=[N+]([O-])c1cc(-c2nnn(Cc3ccc(Br)cc3)n2)cc([N+](=O)[O-])c1 = > 500 µM
CCCCCCCCCCCCn1nnc(-c2cc([N+](=O)[O-])cc([N+](=O)[O-])c2)n1 = > 250 µM
COc1ccc(Cn2nnc(-c3cc([N+](=O)[O-])cc([N+](=O)[O-])c3)n2)cc1 = > 500 µM

###

- System: CHO-K1
- assay.protocol: Cytotoxicity against CHOK1 cells after 24 hrs by MTT assay
- Type: cell-based
- run.conditions: Cricetulus griseus, CHO-K1, 24 h
pIC50: −log10 of the molar value.
Quick reference: pIC50 of the listed items.
assay.readout: pIC50

O=[N+]([O-])c1cc(-c2nnn(Cc3ccc(Br)cc3)n2)cc([N+](=O)[O-])c1 = 4.26
COc1ccc(Cn2nnc(-c3cc([N+](=O)[O-])cc([N+](=O)[O-])c3)n2)cc1 = 4.02
O=[N+]([O-])c1cc(-c2nnn(Cc3ccc(F)cc3)n2)cc([N+](=O)[O-])c1 = 4.46
COc1cccc(-n2nnnc2SCn2nnc(-c3cc([N+](=O)[O-])cc([N+](=O)[O-])c3)n2)c1 = 3.87
O=[N+]([O-])c1cc(-c2nnnn2Cc2ccccc2)cc([N+](=O)[O-])c1 = 4.74
O=[N+]([O-])c1cc(-c2nnn(Cc3cccc(Br)c3)n2)cc([N+](=O)[O-])c1 = 4.54
O=[N+]([O-])c1cc(-c2nnn(CSc3nnnn3-c3ccc(Cl)cc3)n2)cc([N+](=O)[O-])c1 = 4.85
O=[N+]([O-])c1cc(Sc2nnnn2C2CCCCC2)cc([N+](=O)[O-])c1 = 3.82
O=[N+]([O-])c1cc(-c2nnn(Cc3ccccc3)n2)cc([N+](=O)[O-])c1 = 3.82
COc1ccc(Cn2nnnc2-c2cc([N+](=O)[O-])cc([N+](=O)[O-])c2)cc1 = 4.68
O=[N+]([O-])c1cc(Sc2nnnn2Cc2ccccc2)cc([N+](=O)[O-])c1 = 3.90
O=[N+]([O-])c1cc(-c2nnn(Cc3cccc(Cl)c3)n2)cc([N+](=O)[O-])c1 = 4.57

###

- Tested on: Mycobacterium tuberculosis
- assay.protocol: Antimycobacterial activity against Mycobacterium tuberculosis H37Rv CNCTC My 331/88 after 21 days by micromethod
- Assay type: functional
- run.conditions: H37Rv CNCTC My 331/88, 504 h
Quick reference: MIC99 of the listed items.
assay.readout: MIC99 (µM)

Cn1nnc(-c2cc([N+](=O)[O-])cc([N+](=O)[O-])c2)n1 = 32
COc1ccc(-n2nnnc2SCn2nnc(-c3cc([N+](=O)[O-])cc([N+](=O)[O-])c3)n2)cc1 = 0.5
O=[N+]([O-])c1cc(-c2nnn(CSc3nnnn3-c3ccc(Cl)cc3)n2)cc([N+](=O)[O-])c1 = 0.03
O=[N+]([O-])c1cc(-c2nnn(CCCSc3nnnn3-c3ccc(Cl)c(Cl)c3)n2)cc([N+](=O)[O-])c1 = 0.25
Cc1ccc(Cn2nnnc2-c2cc([N+](=O)[O-])cc([N+](=O)[O-])c2)cc1 = 2
COc1ccccc1-n1nnnc1Sc1cc([N+](=O)[O-])cc([N+](=O)[O-])c1 = 8
O=[N+]([O-])c1cc(-c2nnn(Cc3cc(F)cc(F)c3)n2)cc([N+](=O)[O-])c1 = 5
O=[N+]([O-])c1cc(-c2nnn(CSc3nnnn3-c3ccc(Cl)c(Cl)c3)n2)cc([N+](=O)[O-])c1 = 0.03
COc1ccc(-n2nnnc2Sc2cc([N+](=O)[O-])cc([N+](=O)[O-])c2)cc1 = 1

###

- Tested on: Mycobacterium kansasii
- assay.protocol: Antimycobacterial activity against Mycobacterium kansasii CNCTC My 235/80 after 7 days by micromethod
- Format: functional
- run.conditions: CNCTC My 235/80, 168 h
assay.readout: MIC99 (µM)

COc1cccc(Cn2nnc(-c3cc([N+](=O)[O-])cc([N+](=O)[O-])c3)n2)c1 = 1
O=[N+]([O-])c1cc(-c2nnn(Cc3c(F)cccc3Cl)n2)cc([N+](=O)[O-])c1 = 0.5
COc1ccccc1-n1nnnc1SCn1nnc(-c2cc([N+](=O)[O-])cc([N+](=O)[O-])c2)n1 = 32
Cc1ccc(Cn2nnc(-c3cc([N+](=O)[O-])cc([N+](=O)[O-])c3)n2)cc1 = 0.5
O=[N+]([O-])c1cc(-c2nnn(Cc3cccc(F)c3)n2)cc([N+](=O)[O-])c1 = 1

###

Quick reference: MIC of the listed items.
- Tested on: Aspergillus fumigatus
- assay.protocol: Antifungal activity against Aspergillus fumigatus 231 after 24 hrs by broth microdilution method
- Format: functional
- run.conditions: Aspergillus fumigatus, 231, 24 h
assay.readout: MIC

OC(Cn1cncn1)(Cn1cncn1)c1ccc(F)cc1F = > 500 µM
COc1ccc(Cn2nnc(-c3cc([N+](=O)[O-])cc([N+](=O)[O-])c3)n2)cc1 = > 500 µM
O=[N+]([O-])c1cc(-c2nnn(Cc3ccc(F)cc3)n2)cc([N+](=O)[O-])c1 = > 500 µM
Cn1nnnc1SCn1nnc(-c2cc([N+](=O)[O-])cc([N+](=O)[O-])c2)n1 = > 500 µM
C[C@@H]1[C@H](O)[C@@H](C)/C=C/C=C/C=C/C=C/C=C/C=C/C=C/[C@H](O[C@@H]2O[C@H](C)[C@@H](O)[C@H](N)[C@@H]2O)C[C@@H]2O[C@](O)(C[C@@H](O)C[C@@H](O)[C@H](O)CC[C@@H](O)C[C@@H](O)CC(=O)O[C@H]1C)C[C@H](O)[C@H]2C(=O)O = 0.54 µM
O=[N+]([O-])c1cc(-c2nnn(CSc3nnnn3-c3ccccc3)n2)cc([N+](=O)[O-])c1 = > 125 µM
O=[N+]([O-])c1cc(-c2nnn(CSc3nnnn3Cc3ccccc3)n2)cc([N+](=O)[O-])c1 = > 125 µM
